Kindly supply the reported growth values for the records listed here.
- Test system: NCI/ADR-RES ovarian
- experimentNotes: NCI-60 one-dose screen, 48 h (100 = growth as untreated, 0 = no growth, -100 = all killed)
- conditionSet: 10 µM
About 83,000 compounds went through this panel and 20% of them were active in at least one assay; those are over-represented in the sample as a whole.
# number only, unit % dropped from output

In plain terms, CC(C)(N)COS(=O)(=O)O has a documented growth of 114

In plain terms, O=C1N(C[P+](c2ccccc2)(c2ccccc2)c2ccccc2)CCCN1C[P+](c1ccccc1)(c1ccccc1)c1ccccc1 has a documented growth of 111

In plain terms, COC(=O)c1cccc(Br)c1 has a documented growth of 106

In plain terms, CCOC(=O)c1[nH]c(C)c(C(=O)O)c1C has a documented growth of 107

In plain terms, O=C(O)/C=C/C(=O)NCc1ccccc1 has a documented growth of 102

In plain terms, O=C(O)CCC(NC(=O)OCc1ccccc1)C(=O)O (stereo not drawn) has a documented growth of 107

In plain terms, CCCCC(CC)COC(C)=O (stereo not drawn) has a documented growth of 99.2

In plain terms, CCOC(=O)CCCS(C)(=O)=O has a documented growth of 103

In plain terms, O=C(/C(=N/O)c1ccccc1)c1ccccc1 has a documented growth of 113

In plain terms, O=C(O)c1cccc([N+](=O)[O-])c1O has a documented growth of 102

In plain terms, O=[N+]([O-])c1ccc(/C=C/C=C/c2ccccc2)c(Cl)c1 has a documented growth of 108

In plain terms, CC[N+](C)(CC)CCO has a documented growth of 105

In plain terms, Cc1ccc(Cl)cc1NC(=O)N(C)CCO has a documented growth of 112

====

- System: A549/ATCC NSCLC
- experimentNotes: NCI-60 one-dose screen, 48 h (100 = growth as untreated, 0 = no growth, -100 = all killed)
- conditionSet: 10 µM
- Procedure: Growth inhibition of the A549/ATCC human Non-Small Cell Lung tumor cell line is measured as a screen for anti-cancer activity. Cells are grown in 96 well plates and exposed to the test compound for 48 hours. Compounds are tested at a single concentration, which is 10^-5 M for most compounds. The reported endpoint is percent growth (GI% or GIPRCNT), where numbers from 0 - 100% represent growth inhibition, and numbers from -100% - 0 represent cell death. […]
This is part of a sample that, as a whole, favours compounds with a hit. Of some 83,000 tested, about 20% had one in any assay.
Kindly supply the reported growth values for the records listed here.
# number only, unit % dropped from output

Lab entry: A549/ATCC NSCLC assay, molecule CN(C)C(=O)Oc1cccc([N+](C)(C)C)c1 , growth = 102

Lab entry: A549/ATCC NSCLC assay, molecule COc1ccccc1N1CCN(C(=S)Nc2ccccc2)CC1 , growth = 99.7

Lab entry: A549/ATCC NSCLC assay, molecule CN(C)c1ccc2nc3ccc(=N)cc-3sc2c1 , growth = 13.6

Lab entry: A549/ATCC NSCLC assay, molecule Cc1cc(OCCO)cc(C)c1Cl , growth = 104

Lab entry: A549/ATCC NSCLC assay, molecule Cc1ccc(S(=O)(=O)O)c(C)c1 , growth = 104

Lab entry: A549/ATCC NSCLC assay, molecule CN(C)C(C)(C)CC(C)(C)C , growth = 108

Lab entry: A549/ATCC NSCLC assay, molecule C=CCNc1ccccc1 , growth = 101

Lab entry: A549/ATCC NSCLC assay, molecule COC(=O)C(O)c1ccccc1 (stereo not drawn) , growth = 115

Lab entry: A549/ATCC NSCLC assay, molecule Cn1cnc2nc(Cl)nc(Cl)c21 , growth = 17.2

Lab entry: A549/ATCC NSCLC assay, molecule COC(=O)/C=C\C(=O)OC , growth = 100

Lab entry: A549/ATCC NSCLC assay, molecule Cc1ccc(O)c(C(=O)c2ccccc2)c1 , growth = 95.9

Lab entry: A549/ATCC NSCLC assay, molecule OC1CCCc2ccccc21 (stereo not drawn) , growth = 51.3

Lab entry: A549/ATCC NSCLC assay, molecule S=C1NCc2cncnc2N1 , growth = 98.2

Lab entry: A549/ATCC NSCLC assay, molecule Nc1ccc(N=Nc2ccc(O)cc2)c(N)n1 , growth = 69.2

Lab entry: A549/ATCC NSCLC assay, molecule CCOc1ccccc1/C=N/Nc1nc2ccccc2o1 , growth = 98.6

Lab entry: A549/ATCC NSCLC assay, molecule O=c1[nH]c(O)c(/C=C2/C=Nc3ccccc32)[nH]1 , growth = 91.3

Lab entry: A549/ATCC NSCLC assay, molecule CC(=O)OCC1OC(OC2=C(CC=C(C)C)C(=O)c3ccccc3C2=O)C(OC(C)=O)C(OC(C)=O)C1OC(C)=O (stereo not drawn) , growth = 79.5

Lab entry: A549/ATCC NSCLC assay, molecule CN(C)Cc1cc(C(C)(C)CC(C)(C)C)ccc1O , growth = 111

Lab entry: A549/ATCC NSCLC assay, molecule C=CCNc1nnc(C)s1 , growth = 116

Lab entry: A549/ATCC NSCLC assay, molecule O=C(/C(=N/O)c1ccccc1)c1ccccc1 , growth = 98.1

Lab entry: A549/ATCC NSCLC assay, molecule COc1cc(/C=C/C(=O)c2ccccc2)cc(OC)c1OC , growth = 89.4

Lab entry: A549/ATCC NSCLC assay, molecule COc1ccc(C)cc1OC , growth = 96.9

Lab entry: A549/ATCC NSCLC assay, molecule Cc1ccc(C(=O)N/N=C/c2ccc3c(c2)OCO3)cc1 , growth = 97.7

Lab entry: A549/ATCC NSCLC assay, molecule COc1cc([C@@H]2c3cc4c(cc3[C@H](O)[C@H]3COC(=O)[C@H]23)OCO4)cc(OC)c1OC , growth = 14.2

Lab entry: A549/ATCC NSCLC assay, molecule CCN(CC)CCNc1ccc(CO)c2sc3ccccc3c(=O)c12 , growth = 24.2

Lab entry: A549/ATCC NSCLC assay, molecule CCOc1ccc(/C=N/N=C(N)N)cc1OCC , growth = 95.7

Lab entry: A549/ATCC NSCLC assay, molecule O=C1OC(c2ccc(F)cc2)CC1CN1CCOCC1 (stereo not drawn) , growth = 100

Lab entry: A549/ATCC NSCLC assay, molecule Nc1ccc(C(=O)c2ccc(N)c(Br)c2)cc1Br , growth = 17.9
